Record form. Attribute: GI50. Fill in for each entry.
System: NCI/ADR-RES
Assay: NCI tumour cell line growth inhibition, 48 h
The source made the active and inactive calls. Cut-off read from the data, not from the text of the source: active = GI50 up to about 1.1 µM and inactive = higher.

response.value for CCC(C)C1NC(=O)C(NC(=O)C(CC(C)C)N(C)C(=O)[C@@H]2CC(O)CN2C(=O)[C@H](C)O)C(C)OC(=O)[C@H](Cc2ccc(OC)cc2)N(C)C(=O)[C@@H]2CCCN2C(=O)[C@H](CC(C)C)NC(=O)C(C)C(=O)[C@H](C(C)C)OC(=O)CC1O (stereo not given in full) (field: GI50) = 6.84 µM (inactive)

response.value for CCCNC(=O)Cn1c(C)cc2ccccc21 (field: GI50) = > 100 µM (inactive)

response.value for N#CC(C#N)=C1C(C#N)=C(N)NC12OCCO2 (field: GI50) = > 100 µM (inactive)

response.value for O=C(O)c1cccc(C(=O)O)c1[S+]([O-])Cc1ccccc1 (stereo not given) (field: GI50) = > 100 µM (inactive)

response.value for NNC(=S)N/N=C(\C(=O)Nc1cccc(O)c1)C1C(=O)NC(=S)NC1=O (field: GI50) = > 100 µM (inactive)

----------
Record form. Attribute: GI50. Fill in for each entry.
Test system: SNB-78
Experiment: NCI tumour cell line growth inhibition, 48 h
Calls of active or inactive are those of the source. Rule as the data show it: active = GI50 up to about 1.1 µM and inactive = higher.

Lab note: molecule Cc1nc2ccc(C(F)(F)F)cc2nc1Nc1ccc(Cl)c(Cl)c1 tested on SNB-78; recorded GI50 was 14.7 µM (inactive)

Lab note: molecule Cc1c2n(c(=O)[nH]c1=O)C1OC(CO)C(O2)C1O (stereo not given) tested on SNB-78; recorded GI50 was > 100 µM (inactive)

Lab note: molecule CC1=C(C(=O)Nc2cccc(C(F)(F)F)c2)C(c2ccc(O)cc2)C(C(=O)Nc2cccc(C(F)(F)F)c2)=C(C)N1 tested on SNB-78; recorded GI50 was 23 µM (inactive)

Lab note: molecule COc1cc(O)c2c(c1)C(=O)C1=C(C2=O)C(O)C[C@@](C)(O)C1 (stereo not given in full) tested on SNB-78; recorded GI50 was 1.9 µM (inactive)

Lab note: molecule CC1CCC(=O)C(C(O)CC2CC(=O)N(c3ccccc3)C(=O)C2)C1 (stereo not given) tested on SNB-78; recorded GI50 was > 100 µM (inactive)

----------
Test system: NCI-H522
Assay: NCI tumour cell line growth inhibition, 48 h
Activity calls are given as the source filed them. No stated cut-off is given here; in the data, active = GI50 up to about 1.1 µM and inactive = higher.
assay-metric: GI50

response.value for [N-]=[N+]=C1N=CN=C1c1nc[nH]n1 (field: GI50) = 30.7 µM (inactive)

response.value for CCC1(O)CN(CCOC)[C@H]2C[C@@H]1C(=O)c1[nH]c3ccccc3c12 (stereo not given in full) (field: GI50) = > 100 µM (inactive)

response.value for COc1ccc(NC(=O)CC(=O)N/N=C/c2ccc(N(CCC#N)S(C)(=O)=O)cc2)cc1 (field: GI50) = > 100 µM (inactive)

response.value for O=C1NC(=S)N/C1=C\c1cccs1 (field: GI50) = > 100 µM (inactive)

response.value for CS/C=C\C(=O)O[C@H]1C[C@@H]2[C@@H](O)c3occ(C)c3C[C@]2(C)[C@@H](C)C1 (field: GI50) = 23.2 µM (inactive)

----------
Test system: NCI-H226
Assay: NCI tumour cell line growth inhibition, 48 h
Active and inactive are the calls of the source. Cut-off read from the data, not from the text of the source: active = GI50 up to about 1.1 µM and inactive = higher.
Could you please pick one outcome from this set? T for active, F for inactive

Inquiry: Please indicate how the test categorized C[As](C)SCC(NC(=O)CCC(N)C(=O)O)C(=O)NCC(=O)O.c1ccncc1 (centres undefined) .
Reply text: T

Inquiry: Please indicate how the test categorized N#CCCOc1cccc(C2(N3CCCCC3)CCCCC2)c1 .
Reply text: F

Inquiry: Please indicate how the test categorized NC(=O)C(=O)N/N=C(\CC1(O)C(=O)Nc2ccccc21)c1ccc2ccccc2c1 (centres undefined) .
Reply text: F

Inquiry: Please indicate how the test categorized N#Cc1ccccc1C(Cl)(Cl)c1cnccn1 .
Reply text: F

Inquiry: Please indicate how the test categorized COc1ccc(NC(=O)C(C#N)=C(SC)SC)cc1 .
Reply text: F

Inquiry: Please indicate how the test categorized COc1ccc2nc3c(C(=O)NCCN(C)C)cccc3cc2c1 .
Reply text: F

Inquiry: Please indicate how the test categorized C=CCOn1c(C=C)nc2ccc(C)cc21 .
Reply text: F

Inquiry: Please indicate how the test categorized COc1ccc(C2C=C(c3ccccc3)Nc3nnnn32)cc1 (centres undefined) .
Reply text: F

Inquiry: Please indicate how the test categorized COc1nc(N=P(c2ccccc2)(c2ccccc2)c2ccccc2)cc(=O)[nH]1 .
Reply text: F

Inquiry: Please indicate how the test categorized CC1(C)C2CCC1(C)[C@H](O)[C@H]2Nc1cc(C(F)(F)F)cc(C(F)(F)F)c1 (some centres undefined) .
Reply text: F

Inquiry: Please indicate how the test categorized O=C(CCCl)NN=C1NCCCN1 .
Reply text: F

Inquiry: Please indicate how the test categorized COc1cc(C[C@H]2C(=O)OC[C@@H]2Cc2ccc(OC)c(OC)c2)cc(OC)c1 .
Reply text: F

Inquiry: Please indicate how the test categorized O=C(NS(=O)(=O)OCC(Cl)(Cl)Cl)SCCC(F)(F)C(F)(F)C(F)(F)C(F)(F)C(F)(F)C(F)(F)F .
Reply text: F

Inquiry: Please indicate how the test categorized O=c1[nH]nc2ccccc2c1Cc1ccccc1 .
Reply text: F

Inquiry: Please indicate how the test categorized Cn1nc(-c2ccccc2)nc1[N+](=O)[O-] .
Reply text: F

Inquiry: Please indicate how the test categorized CC(=O)OC(C)C(=O)C1c2cccc(O)c2C(=O)c2c(O)cc(C)cc21 (centres undefined) .
Reply text: T

Inquiry: Please indicate how the test categorized O=C(O)[C@@H]1[C@H](C(=O)O)[C@H](C(=O)O)C[C@@H]1C(=O)O .
Reply text: F

Inquiry: Please indicate how the test categorized CC(C)[Si]1(C(C)C)OCC2OC(n3ccc(=O)[nH]c3=O)C(O)(CO)C2O[Si](C(C)C)(C(C)C)O1 (centres undefined) .
Reply text: F

Inquiry: Please indicate how the test categorized CCC(C)C(=O)c1c(O)c(C/C=C(\C)CCC=C(C)C)c(O)c2c(C(O)CC)cc(=O)oc12 (centres undefined) .
Reply text: F

Inquiry: Please indicate how the test categorized NCCSc1nc2ccccc2c(=O)n1-c1ccccc1 .
Reply text: F

Inquiry: Please indicate how the test categorized O=C1C(=O)C2(CC1S(=O)(=O)c1ccccc1)c1ccccc1-c1ccccc12 (centres undefined) .
Reply text: F

Inquiry: Please indicate how the test categorized COc1ccc(C2c3cc4c(cc3OC(N3CCOCC3)C2C)OCO4)cc1OC (centres undefined) .
Reply text: F

Inquiry: Please indicate how the test categorized CN(C)c1ccc(C2SCC(=O)N2c2nc3cc4sc(N5C(=O)CSC5c5ccc(N(C)C)cc5)nc4cc3s2)cc1 (centres undefined) .
Reply text: F

Inquiry: Please indicate how the test categorized Cc1c(/N=N/c2ccc(Cl)cc2)c(C)n(C2OC(CO)C(O)C(O)C2O)c(=S)c1C#N (centres undefined) .
Reply text: F

Inquiry: Please indicate how the test categorized CC(C)(O)/C=C/C(=O)[C@](C)(O)[C@H]1[C@H](O)C[C@@]2(C)[C@@H]3CC=C4[C@@H](C[C@H](O)C(=O)C4(C)C)[C@]3(C)C(=O)C[C@]12C [CUCURBITACIN D] .
Reply text: T

Inquiry: Please indicate how the test categorized COc1ccc(CNc2nc3cc(C(F)(F)F)ccc3nc2C(=O)O)cc1 .
Reply text: F

Inquiry: Please indicate how the test categorized CC1CCC(=O)C(C(O)CC2CC(=O)N(c3ccccc3)C(=O)C2)C1 (centres undefined) .
Reply text: F

Inquiry: Please indicate how the test categorized COc1ccc2c(c1)N=C(N)n1c(nc3ccccc31)S2 .
Reply text: F

Inquiry: Please indicate how the test categorized CC#CCCCC1(C)CCNC1=S (centres undefined) .
Reply text: F

Inquiry: Please indicate how the test categorized O=P(c1ccccc1)(c1ccccc1)C(NCc1ccccc1)c1ccc(F)cc1 (centres undefined) .
Reply text: F

Inquiry: Please indicate how the test categorized O=C(Nc1nc2c(=O)[nH]cnc2s1)c1ccccc1 .
Reply text: F

Inquiry: Please indicate how the test categorized COc1cc(O)c2c(c1)C(=O)C1=C(C2=O)C(O)C[C@@](C)(O)C1 (some centres undefined) .
Reply text: F

Inquiry: Please indicate how the test categorized Cc1nc2ccccc2cc1C[N+]12CN3CN(CN(C3)C1)C2 .
Reply text: F

Inquiry: Please indicate how the test categorized CCCCCC[N+](C)(C)Cc1ccc(C[N+](C)(C)CCCCCC)cc1 .
Reply text: F

----------
System: EKVX
Test: NCI tumour cell line growth inhibition, 48 h
Active and inactive are the calls of the source. No stated cut-off is given here; in the data, active = GI50 up to about 1.1 µM and inactive = higher.
Could you please pick one outcome from this set? yes (active), no (inactive)

Inquiry: Please indicate how the test categorized C/C(=N\Nc1nc2ccccc2s1)c1ncccn1 .
Reply text: yes

Inquiry: Please indicate how the test categorized COC(=O)CCc1cc(O)c2c(c1)C(C(=O)OC)C(c1ccc(O)c(O)c1)O2 (stereo not given) .
Reply text: no

Inquiry: Please indicate how the test categorized COc1ccc(C(c2ccc(C(C)C)cc(=O)c2O)c2c(O)cc3oc(-c4ccccc4)cc(=O)c3c2O)cc1 (stereo not given) .
Reply text: no

Inquiry: Please indicate how the test categorized Cc1c(S(=O)(=O)/N=C(\NN)Nc2ccc(Cl)cc2)sc2ccc(Cl)cc12 .
Reply text: no

Inquiry: Please indicate how the test categorized CC(=O)Nc1ccc(C2C(C(=O)Nc3ccccc3C)=C(C)NC(C)=C2C(=O)Nc2ccccc2C)cc1 .
Reply text: no
